SYSTEM_NAME: Mitogen-activated protein kinase 1 (Homo sapiens) (UniProt P28482)
Sequence (P28482 whole entry): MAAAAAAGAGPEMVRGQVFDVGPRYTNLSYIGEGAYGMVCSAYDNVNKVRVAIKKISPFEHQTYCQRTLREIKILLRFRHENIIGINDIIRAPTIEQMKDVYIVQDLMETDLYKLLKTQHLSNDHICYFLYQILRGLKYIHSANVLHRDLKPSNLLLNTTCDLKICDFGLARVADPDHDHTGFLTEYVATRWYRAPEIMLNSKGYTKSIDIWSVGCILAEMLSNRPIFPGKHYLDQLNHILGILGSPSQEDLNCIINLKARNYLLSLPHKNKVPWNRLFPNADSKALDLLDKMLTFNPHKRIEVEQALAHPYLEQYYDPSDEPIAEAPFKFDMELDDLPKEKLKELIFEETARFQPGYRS
METHOD: Inhibition of human Mitogen-activated protein kinase 2 at 30 uM
READOUT_NAME: inhibition (%)

> print(dat)
                                    molecule  result
 1                 Cn1cnc2c(Sc3ccccc3)ncnc21      12
 2             Fc1ccc(Sc2[nH]cnc3nccc2-3)cc1       2
 3              Nc1ncnc2ncn(Cc3ccc(F)cc3)c12       5
 4        Fc1ccc(Sc2ncnc3c2ncn3Cc2ccccc2)cc1       0
 5             Fc1ccc(Cc2[nH]cnc3ncnc2-3)cc1       0
 6         Cn1c(C#CCCO)nc2c(Sc3ccccc3)ncnc21       0
 7              Cn1cnc2c(-c3ccc(F)cc3)ncnc21       0
 8                Nc1ncnc2c1ncn2Cc1ccc(F)cc1       0
 9               c1ccc(Nc2ncnc3[nH]cnc23)cc1      33
10              Fc1ccc(Sc2ncnc3[nH]cnc23)cc1      12
11  Cn1c(-c2ccc(S(C)(=O)=O)cc2)nc2c(Sc3ccccc3)ncnc21       3
12                  Clc1ncnc2c1ncn2Cc1ccccc1       0
13             Cn1c(Br)nc2c(Sc3ccccc3)ncnc21       0
14             Cn1cnc2c(/C=C/c3ccccc3)ncnc21       0
15              c1ccc(Cc2[nH]cnc3ncnc2-3)cc1       3
16  Cn1c(-c2ccc([S+](C)[O-])cc2)nc2c(Sc3ccccc3)ncnc21 (configuration not stated)       0
17             Fc1ccc(Oc2[nH]cnc3ncnc2-3)cc1       0
18              Cn1cnc2c(Nc3ccc(F)cc3)ncnc21      57
19      Cn1c(-c2ccccc2)nc2c(Sc3ccccc3)ncnc21       0
20    CSc1ccc(-c2nc3c(Sc4ccccc4)ncnc3n2C)cc1       0
21      Fc1ccc(Cn2cnc3c(Sc4ccccc4)ncnc32)cc1       0
22             Fc1ccc(Nc2[nH]cnc3ncnc2-3)cc1      48
23            c1ccc(C[n+]2c[nH]c3ncncc32)cc1       7
24             Cn1cnc2c(SCc3ccc(F)cc3)ncnc21       8
25               c1ccc(Oc2ncnc3[nH]cnc23)cc1       6
26           Fc1ccc(-[n+]2c[nH]c3ncncc32)cc1       0
27                        Nc1[nH]cnc2ncnc1-2      17

###

SYSTEM_NAME: Mitogen-activated protein kinase 10 (Rattus norvegicus) (UniProt P49187)
Sequence (P49187 whole entry): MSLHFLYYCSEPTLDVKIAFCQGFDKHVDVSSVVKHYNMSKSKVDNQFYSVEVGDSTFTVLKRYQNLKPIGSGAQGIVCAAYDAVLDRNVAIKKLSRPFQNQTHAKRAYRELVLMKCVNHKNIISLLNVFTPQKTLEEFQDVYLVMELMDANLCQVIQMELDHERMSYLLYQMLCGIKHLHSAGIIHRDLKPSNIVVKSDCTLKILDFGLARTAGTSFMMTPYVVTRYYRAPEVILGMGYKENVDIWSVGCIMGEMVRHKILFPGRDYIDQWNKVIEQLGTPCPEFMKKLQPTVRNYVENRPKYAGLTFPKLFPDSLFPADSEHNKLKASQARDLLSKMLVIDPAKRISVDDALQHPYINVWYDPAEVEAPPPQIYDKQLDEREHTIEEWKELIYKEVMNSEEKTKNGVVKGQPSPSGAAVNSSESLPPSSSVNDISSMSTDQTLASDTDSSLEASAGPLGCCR
METHOD: Inhibition of rat c-Jun N-terminal kinase-3 at 30 uM
Entries get a class label from measured inhibition. See ranges: bottom bin (below 4%), middle bin (4% to below 10%), top bin (10% or more)

> print(dat)
                                    molecule  class.assignment
 1   Fc1ccc(Cn2cnc3c(Sc4ccc(F)cc4)ncnc32)cc1        bottom bin
 2             Fc1ccc(Sc2[nH]cnc3nccc2-3)cc1        middle bin
 3  CSc1ccc(-c2nc3c(Sc4ccc(F)cc4)ncnc3n2C)cc1        bottom bin
 4            Fc1ccc(CSc2[nH]cnc3ncnc2-3)cc1           top bin
 5      Fc1ccc(Cn2cnc3c(Sc4ccccc4)ncnc32)cc1        bottom bin
 6              c1ccc(Cc2[nH]cnc3ncnc2-3)cc1           top bin
 7  Cn1c(-c2ccc([S+](C)[O-])cc2)nc2c(Sc3ccccc3)ncnc21 (configuration not stated)        middle bin
 8              Cn1cnc2c(-c3ccc(F)cc3)ncnc21           top bin
 9                   Nc1ncnc2c1ncn2Cc1ccccc1           top bin
10   Cn1c(-c2ccccc2)nc2c(Sc3ccc(F)cc3)ncnc21           top bin
11             Cn1cnc2c(SCc3ccc(F)cc3)ncnc21        middle bin

###

Item-by-item account of inhibition
SYSTEM_NAME: Dual specificity mitogen-activated protein kinase kinase 1 (Homo sapiens)
METHOD: Inhibition of human Mitogen activated protein kinase kinase 1 (MEK1) at 30 uM
READOUT_NAME: inhibition (%)

> print(dat)
                                    compound  readout.units  result
 1              Fc1ccc(Sc2ncnc3[nH]cnc23)cc1              %       2
 2           Fc1ccc(-[n+]2c[nH]c3ncncc32)cc1              %       0
 3             Cn1c(Br)nc2c(Sc3ccccc3)ncnc21              %       0
 4              Cn1cnc2c(Nc3ccc(F)cc3)ncnc21              %       8
 5      Cn1c(-c2ccccc2)nc2c(Sc3ccccc3)ncnc21              %       4
 6                Nc1ncnc2c1ncn2Cc1ccc(F)cc1              %       7
 7  Cn1c(-c2ccc([S+](C)[O-])cc2)nc2c(Sc3ccc(F)cc3)ncnc21 (stereo not drawn)              %       1
 8            c1ccc(C[n+]2c[nH]c3ncncc32)cc1              %       4
 9                 Cn1cnc2c(Nc3ccccc3)ncnc21              %       4
10    CSc1ccc(-c2nc3c(Sc4ccccc4)ncnc3n2C)cc1              %       4
11       c1ccc(Cn2cnc3c(Sc4ccccc4)ncnc32)cc1              %       6
12  CSc1ccc(-c2nc3c(Sc4ccc(F)cc4)ncnc3n2C)cc1              %       4
13                  Clc1ncnc2c1ncn2Cc1ccccc1              %       3

###

SYSTEM_NAME: Mitogen-activated protein kinase 8 (Homo sapiens)
METHOD: Inhibition of human c-Jun N-terminal kinase-1 alpha-1 at 30 uM
Item-by-item account of inhibition
READOUT_NAME: inhibition (%)

> print(dat)
                            smiles.text  readout.name  result
1          Fc1ccc(Sc2ncnc3[nH]cnc23)cc1    inhibition       0
2             Cn1cnc2c(Nc3ccccc3)ncnc21    inhibition       0
3               Nc1ncnc2c1ncn2Cc1ccccc1    inhibition       1
4              Clc1ncnc2c1ncn2Cc1ccccc1    inhibition       0
5            Cn1cnc2c(SCc3ccccc3)ncnc21    inhibition       1
6  Cn1c(-c2ccccc2)nc2c(Sc3ccccc3)ncnc21    inhibition       0
7         Fc1ccc(Sc2[nH]cnc3nccc2-3)cc1    inhibition       2

###

SYSTEM_NAME: cAMP-dependent protein kinase (PKA) (Homo sapiens) (UniProt P22694+P17612+P22612)
METHOD: Inhibition of human cAMP-dependent protein kinase (PKA)
Format: protein assay
Parameters: concentration or dose not given beside the values
CONDITION_INFO: concentration not given here
READOUT_NAME: inhibition (%)

> print(dat)
                                smiles.text                               system.name  readout.name  result
 1              c1ccc(Sc2ncnc3[nH]cnc23)cc1  cAMP-dependent protein kinase (PKA) (Homo sapiens) (UniProt P22694+P17612+P22612)    inhibition       8
 2             Fc1ccc(Sc2ncnc3[nH]cnc23)cc1  cAMP-dependent protein kinase (PKA) (Homo sapiens) (UniProt P22694+P17612+P22612)    inhibition      10
 3     Cn1c(-c2ccccc2)nc2c(Sc3ccccc3)ncnc21  cAMP-dependent protein kinase (PKA) (Homo sapiens) (UniProt P22694+P17612+P22612)    inhibition       3
 4            Fc1ccc(Cn2cnc3ncnc(Cl)c32)cc1  cAMP-dependent protein kinase (PKA) (Homo sapiens) (UniProt P22694+P17612+P22612)    inhibition       0
 5  Fc1ccc(Cn2cnc3c(Sc4ccc(F)cc4)ncnc32)cc1  cAMP-dependent protein kinase (PKA) (Homo sapiens) (UniProt P22694+P17612+P22612)    inhibition       0
 6            Fc1ccc(Sc2[nH]cnc3nccc2-3)cc1  cAMP-dependent protein kinase (PKA) (Homo sapiens) (UniProt P22694+P17612+P22612)    inhibition       0
 7                Cn1cnc2c(Nc3ccccc3)ncnc21  cAMP-dependent protein kinase (PKA) (Homo sapiens) (UniProt P22694+P17612+P22612)    inhibition       0
 8             c1ccc(CSc2ncnc3[nH]cnc23)cc1  cAMP-dependent protein kinase (PKA) (Homo sapiens) (UniProt P22694+P17612+P22612)    inhibition      13
 9           c1ccc(C[n+]2c[nH]c3ncncc32)cc1  cAMP-dependent protein kinase (PKA) (Homo sapiens) (UniProt P22694+P17612+P22612)    inhibition       0
10             c1ccc(Sc2[nH]cnc3nccc2-3)cc1  cAMP-dependent protein kinase (PKA) (Homo sapiens) (UniProt P22694+P17612+P22612)    inhibition       0
11             Cn1cnc2c(Sc3ccc(F)cc3)ncnc21  cAMP-dependent protein kinase (PKA) (Homo sapiens) (UniProt P22694+P17612+P22612)    inhibition       1
12            Cn1cnc2c(/C=C/c3ccccc3)ncnc21  cAMP-dependent protein kinase (PKA) (Homo sapiens) (UniProt P22694+P17612+P22612)    inhibition       0
13             Nc1ncnc2ncn(Cc3ccc(F)cc3)c12  cAMP-dependent protein kinase (PKA) (Homo sapiens) (UniProt P22694+P17612+P22612)    inhibition       7
